Test: Biodistribution in AR4-2J tumor-bearing mice
Assay type: in vivo
Details: female, mouse, kidneys, iv, total radioactivity; AR4-2J tumor SCID mice, 4 h pi + co-injection of 50 nmol Tate; mean ± SD; read-out: Kidneys uptake, blocked
Procedure: In the flanks of each of female SCID mice, inocula (150 μL) containing a suspension of 0.8 × 10^7 AR4-2J cells in PBS buffer were subcutaneously injected. […] Mice were sacrificed at 4 h pi, and biodistribution was studied as described above. The in vivo data presented as mean %ID/g ± SD (n ≥ 4) were statistically analyzed with Student’s t test (Prism^TM 2.01, GraphPad Software, San Diego, CA, USA). Analyses were 2-tailed, and a P value < 0.05 was considered statistically significant.
Quantity kind: tissue uptake at 4 h (%ID/g)
Answers are plain numbers, in %ID/g.

tissue uptake at 4 h lookup needed for C[C@H](NC(=O)CN1CCN(CC(=O)O)CCN(CC(=O)O)CCN(CC(=O)O)CC1)C(=O)NCC(=O)N[C@H]1CSSC[C@@H](C(=O)O)NC(=O)[C@H](CO)NC(=O)[C@H]([C@@H](C)O)NC(=O)[C@H](Cc2ccccc2)NC(=O)[C@H]([C@@H](C)O)NC(=O)[C@H](CCCCN)NC(=O)[C@@H](Cc2c[nH]c3ccccc23)NC(=O)[C@H](Cc2ccccc2)NC(=O)[C@H](Cc2ccccc2)NC(=O)[C@H](CC(N)=O)NC(=O)[C@H](CCCCN)NC1=O [[^111In]AT2S, metal not drawn] , thanks.
24.4

----------
assay: Biodistribution in HEK293-hsst2A+ tumor-bearing mice; format: in vivo; conditions: mouse, muscle, iv, 10 pmol total peptide, total radioactivity; HEK293-hsst2A+ tumor SCID mice, 4 h pi; mean ± SD; read-out: Muscle uptake
Quantity kind: tissue uptake at 4 h (%ID/g)
Numbers only, in %ID/g.

Which measured tissue uptake at 4 h value corresponds to C[C@H](NC(=O)CN1CCN(CC(=O)O)CCN(CC(=O)O)CCN(CC(=O)O)CC1)C(=O)NCC(=O)N[C@H]1CSSC[C@@H](C(=O)O)NC(=O)[C@H](CO)NC(=O)[C@H]([C@@H](C)O)NC(=O)[C@H](Cc2ccccc2)NC(=O)[C@H]([C@@H](C)O)NC(=O)[C@H](CCCCN)NC(=O)[C@@H](Cc2c[nH]c3ccccc23)NC(=O)[C@H](Cc2ccccc2)NC(=O)[C@H](Cc2ccccc2)NC(=O)[C@H](CC(N)=O)NC(=O)[C@H](CCCCN)NC1=O [[^111In]AT2S, metal not drawn] ?
0.07

----------
test: Biodistribution in HEK293-hsst2A+ tumor-bearing mice; format: in vivo; conditions: mouse, muscle, iv, total radioactivity; HEK293-hsst2A+ tumor SCID mice, 4 h pi + co-injection of 35 nmol DP2; mean ± SD; read-out: Muscle uptake, blocked
Quantity kind: tissue uptake at 4 h

Sample C[C@H](NC(=O)CN1CCN(CC(=O)O)CCN(CC(=O)O)CCN(CC(=O)O)CC1)C(=O)NCC(=O)N[C@H]1CSSC[C@@H](C(=O)O)NC(=O)[C@H](CO)NC(=O)[C@H]([C@@H](C)O)NC(=O)[C@H](Cc2ccccc2)NC(=O)[C@H]([C@@H](C)O)NC(=O)[C@H](CCCCN)NC(=O)[C@@H](Cc2c[nH]c3ccccc23)NC(=O)[C@H](Cc2ccccc2)NC(=O)[C@H](Cc2ccccc2)NC(=O)[C@H](CC(N)=O)NC(=O)[C@H](CCCCN)NC1=O [[^111In]AT2S, metal not drawn] — what was its tissue uptake at 4 h?
0.07 %ID/g

----------
test: Biodistribution in AR4-2J tumor-bearing mice; type: in vivo; conditions: female, mouse, lung, iv, 10 pmol total peptide, total radioactivity; AR4-2J tumor SCID mice, 1 h pi; mean ± SD; read-out: Lung uptake
Quantity kind: tissue uptake at 1 h (%ID/g)
Answers are plain numbers, in %ID/g.

Need tissue uptake at 1 h, item C[C@H](NC(=O)CN1CCN(CC(=O)O)CCN(CC(=O)O)CCN(CC(=O)O)CC1)C(=O)NCC(=O)N[C@H]1CSSC[C@@H](C(=O)O)NC(=O)[C@H](CO)NC(=O)[C@H]([C@@H](C)O)NC(=O)[C@H](Cc2ccccc2)NC(=O)[C@H]([C@@H](C)O)NC(=O)[C@H](CCCCN)NC(=O)[C@@H](Cc2c[nH]c3ccccc23)NC(=O)[C@H](Cc2ccccc2)NC(=O)[C@H](Cc2ccccc2)NC(=O)[C@H](CC(N)=O)NC(=O)[C@H](CCCCN)NC1=O [[^111In]AT2S, metal not drawn]
2.05

----------
test: Biodistribution in HEK293-hsst2A+ tumor-bearing mice; format: in vivo; conditions: mouse, kidneys, iv, total radioactivity; HEK293-hsst2A+ tumor SCID mice, 4 h pi + co-injection of 35 nmol DP2; mean ± SD; read-out: Kidneys uptake, blocked
Quantity kind: tissue uptake at 4 h (%ID/g)
Numbers only, in %ID/g.

What value of measured tissue uptake at 4 h is listed for C[C@H](NC(=O)CN1CCN(CC(=O)O)CCN(CC(=O)O)CCN(CC(=O)O)CC1)C(=O)NCC(=O)N[C@H]1CSSC[C@@H](C(=O)O)NC(=O)[C@H](CO)NC(=O)[C@H]([C@@H](C)O)NC(=O)[C@H](Cc2ccccc2)NC(=O)[C@H]([C@@H](C)O)NC(=O)[C@H](CCCCN)NC(=O)[C@@H](Cc2c[nH]c3ccccc23)NC(=O)[C@H](Cc2ccccc2)NC(=O)[C@H](Cc2ccccc2)NC(=O)[C@H](CC(N)=O)NC(=O)[C@H](CCCCN)NC1=O [[^111In]AT2S, metal not drawn] ?
25.5

----------
test: Biodistribution in AR4-2J tumor-bearing mice; assay type: in vivo; settings: female, mouse, stomach, iv, total radioactivity; AR4-2J tumor SCID mice, 4 h pi + co-injection of 50 nmol Tate; mean ± SD; read-out: Stomach uptake, blocked
Quantity kind: tissue uptake at 4 h (%ID/g)
Numbers only, in %ID/g.

// lookup tissue uptake at 4 h for C[C@H](NC(=O)CN1CCN(CC(=O)O)CCN(CC(=O)O)CCN(CC(=O)O)CC1)C(=O)NCC(=O)N[C@H]1CSSC[C@@H](C(=O)O)NC(=O)[C@H](CO)NC(=O)[C@H]([C@@H](C)O)NC(=O)[C@H](Cc2ccccc2)NC(=O)[C@H]([C@@H](C)O)NC(=O)[C@H](CCCCN)NC(=O)[C@@H](Cc2c[nH]c3ccccc23)NC(=O)[C@H](Cc2ccccc2)NC(=O)[C@H](Cc2ccccc2)NC(=O)[C@H](CC(N)=O)NC(=O)[C@H](CCCCN)NC1=O [[^111In]AT2S, metal not drawn]
0.18

----------
experiment: Biodistribution in HEK293-hsst5+ tumor-bearing mice; format: in vivo; conditions: mouse, pancreas, iv, 10 pmol, total radioactivity; HEK293-hsst5+ tumor SCID mice, 4 h pi; mean ± SD; read-out: Pancreas uptake
Quantity kind: tissue uptake at 4 h (%ID/g)
Numbers only, in %ID/g.

Please look up its tissue uptake at 4 h: C[C@H](NC(=O)CN1CCN(CC(=O)O)CCN(CC(=O)O)CCN(CC(=O)O)CC1)C(=O)NCC(=O)N[C@H]1CSSC[C@@H](C(=O)O)NC(=O)[C@H](CO)NC(=O)[C@H]([C@@H](C)O)NC(=O)[C@H](Cc2ccccc2)NC(=O)[C@H]([C@@H](C)O)NC(=O)[C@H](CCCCN)NC(=O)[C@@H](Cc2c[nH]c3ccccc23)NC(=O)[C@H](Cc2ccccc2)NC(=O)[C@H](Cc2ccccc2)NC(=O)[C@H](CC(N)=O)NC(=O)[C@H](CCCCN)NC1=O [[^111In]AT2S, metal not drawn]
2.79

----------
Test: Biodistribution in HEK293-hsst2A+ tumor-bearing mice
Type: in vivo
Conditions: mouse, heart, iv, 10 pmol, total radioactivity; HEK293-hsst2A+ tumor SCID mice, 4 h pi; mean ± SD; read-out: Heart uptake
Protocol: In the flanks of SCID mice, inocula (150 μL) containing a suspension of 1.8 × 10^7 HEK293-hsst2A^+, -hsst3^+ or -hsst5^+ cells in PBS were subcutaneously injected. Tumors of substantial size were grown within 3 weeks, whereupon biodistribution experiments were performed. The in vivo data presented as mean %ID/g ± SD (n ≥ 4) were statistically analyzed with Student’s t test (Prism^TM 2.01, GraphPad Software, San Diego, CA, USA). […]
Quantity kind: tissue uptake at 4 h
Show the value, then the unit it is measured in.

Suppose we examine the compound C[C@H](NC(=O)CN1CCN(CC(=O)O)CCN(CC(=O)O)CCN(CC(=O)O)CC1)C(=O)NCC(=O)N[C@H]1CSSC[C@@H](C(=O)O)NC(=O)[C@H](CO)NC(=O)[C@H]([C@@H](C)O)NC(=O)[C@H](Cc2ccccc2)NC(=O)[C@H]([C@@H](C)O)NC(=O)[C@H](CCCCN)NC(=O)[C@@H](Cc2c[nH]c3ccccc23)NC(=O)[C@H](Cc2ccccc2)NC(=O)[C@H](Cc2ccccc2)NC(=O)[C@H](CC(N)=O)NC(=O)[C@H](CCCCN)NC1=O [[^111In]AT2S, metal not drawn] ; what tissue uptake at 4 h value has been reported?
0.22 %ID/g
